Just for reference, patent US20230148214A1 is where these values come from.

Entries and their IC50 values follow.
Target: LRRK2 G2019S (Homo sapiens, UniProt Q5S007, G2019S)
Sequence (Q5S007 whole entry G2019S): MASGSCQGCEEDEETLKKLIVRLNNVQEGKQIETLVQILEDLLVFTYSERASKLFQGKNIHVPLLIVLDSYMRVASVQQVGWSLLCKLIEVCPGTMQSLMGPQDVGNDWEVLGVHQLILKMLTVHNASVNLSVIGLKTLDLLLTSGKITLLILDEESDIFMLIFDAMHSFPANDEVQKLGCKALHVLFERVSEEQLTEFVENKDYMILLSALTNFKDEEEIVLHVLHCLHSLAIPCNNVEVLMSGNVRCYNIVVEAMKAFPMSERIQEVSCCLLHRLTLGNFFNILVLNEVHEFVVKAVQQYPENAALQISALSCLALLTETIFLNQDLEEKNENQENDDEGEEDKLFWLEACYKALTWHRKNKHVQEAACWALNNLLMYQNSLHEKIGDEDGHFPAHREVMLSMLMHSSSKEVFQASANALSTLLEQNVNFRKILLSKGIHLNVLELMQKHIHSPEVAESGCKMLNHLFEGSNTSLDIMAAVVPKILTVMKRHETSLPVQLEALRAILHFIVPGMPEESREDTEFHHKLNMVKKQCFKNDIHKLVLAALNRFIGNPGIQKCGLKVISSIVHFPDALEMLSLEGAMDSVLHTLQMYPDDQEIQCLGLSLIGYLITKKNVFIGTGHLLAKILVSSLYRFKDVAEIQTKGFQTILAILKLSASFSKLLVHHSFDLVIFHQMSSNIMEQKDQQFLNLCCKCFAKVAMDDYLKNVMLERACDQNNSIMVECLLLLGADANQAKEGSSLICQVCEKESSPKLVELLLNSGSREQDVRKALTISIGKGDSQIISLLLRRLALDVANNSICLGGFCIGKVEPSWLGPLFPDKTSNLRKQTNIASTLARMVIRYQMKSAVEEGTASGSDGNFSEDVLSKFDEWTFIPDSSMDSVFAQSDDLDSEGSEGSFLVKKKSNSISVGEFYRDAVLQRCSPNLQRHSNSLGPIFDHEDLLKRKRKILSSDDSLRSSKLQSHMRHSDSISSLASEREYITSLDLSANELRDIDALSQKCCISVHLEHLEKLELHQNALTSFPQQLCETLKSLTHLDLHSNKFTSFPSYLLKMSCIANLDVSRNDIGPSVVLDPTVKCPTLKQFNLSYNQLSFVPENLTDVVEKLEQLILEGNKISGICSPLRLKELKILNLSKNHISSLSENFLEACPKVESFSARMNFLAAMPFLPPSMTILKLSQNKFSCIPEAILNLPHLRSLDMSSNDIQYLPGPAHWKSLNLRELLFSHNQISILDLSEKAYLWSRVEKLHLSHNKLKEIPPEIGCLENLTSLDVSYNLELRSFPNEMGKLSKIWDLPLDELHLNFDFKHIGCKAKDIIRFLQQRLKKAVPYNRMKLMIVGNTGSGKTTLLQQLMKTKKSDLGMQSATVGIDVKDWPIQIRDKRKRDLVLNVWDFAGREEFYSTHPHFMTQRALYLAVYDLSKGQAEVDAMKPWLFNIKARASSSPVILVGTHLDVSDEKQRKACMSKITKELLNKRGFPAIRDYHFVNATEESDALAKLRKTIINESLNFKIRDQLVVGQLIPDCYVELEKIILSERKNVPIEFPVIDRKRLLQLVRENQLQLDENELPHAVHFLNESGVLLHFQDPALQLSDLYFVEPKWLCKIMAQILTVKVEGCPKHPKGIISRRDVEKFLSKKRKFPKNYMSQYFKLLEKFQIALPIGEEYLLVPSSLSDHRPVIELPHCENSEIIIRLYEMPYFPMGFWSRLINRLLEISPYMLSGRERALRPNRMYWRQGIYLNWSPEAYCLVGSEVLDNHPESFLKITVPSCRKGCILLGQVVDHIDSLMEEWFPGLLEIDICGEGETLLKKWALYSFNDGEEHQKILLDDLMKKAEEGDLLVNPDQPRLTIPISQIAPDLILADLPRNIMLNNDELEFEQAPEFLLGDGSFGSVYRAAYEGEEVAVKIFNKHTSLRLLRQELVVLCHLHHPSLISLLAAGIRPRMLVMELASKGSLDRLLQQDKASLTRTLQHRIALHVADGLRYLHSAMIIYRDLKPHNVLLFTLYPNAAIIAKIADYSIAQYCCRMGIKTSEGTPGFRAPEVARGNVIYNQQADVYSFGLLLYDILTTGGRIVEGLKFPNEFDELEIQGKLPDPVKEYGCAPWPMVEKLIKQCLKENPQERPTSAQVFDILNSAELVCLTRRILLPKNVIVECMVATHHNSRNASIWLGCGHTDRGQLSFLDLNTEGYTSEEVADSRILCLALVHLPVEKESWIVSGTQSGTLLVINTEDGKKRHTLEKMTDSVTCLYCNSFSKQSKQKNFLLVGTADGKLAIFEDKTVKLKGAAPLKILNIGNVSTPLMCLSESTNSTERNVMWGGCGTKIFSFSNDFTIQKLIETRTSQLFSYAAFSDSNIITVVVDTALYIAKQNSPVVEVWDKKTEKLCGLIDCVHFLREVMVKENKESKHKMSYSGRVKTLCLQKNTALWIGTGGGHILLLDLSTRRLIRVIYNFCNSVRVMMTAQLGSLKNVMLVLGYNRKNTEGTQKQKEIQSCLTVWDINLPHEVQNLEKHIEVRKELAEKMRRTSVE
Assay: LRRK2 Kinase Activity Assay (LanthaScreen TR-FRET), G2019S
Conditions: recombinant G2019S-LRRK2, 25 μM ATP, 400 nM LRRKtide, 60 min; class symbols
Measured Metric: IC50

>>> measured_result("CS(=O)(=O)c1cccc(-c2n[nH]c3ccc(N[C@H]4CCCc5cc(C#N)ccc54)cc23)c1 (single isomer, unassigned)")
"< 100 nM"
>>> measured_result("N#Cc1ccc2c(c1)CCC[C@@H]2Nc1ccc2[nH]nc(-c3ccc4cc[nH]c4c3)c2c1 (single isomer, unassigned)")
"< 100 nM"
>>> measured_result("Cc1c(C#N)ccc2c1CC[C@H]2Nc1ccc2[nH]nc(-c3cnoc3)c2c1 (single isomer, unassigned) [Example 118, enantiomer 1]")
"< 100 nM"
>>> measured_result("N#Cc1cnc2c(c1Cl)CCC[C@@H]2Nc1ccc2[nH]nc(-c3cnco3)c2c1 (single isomer, unassigned) [Example 144, enantiomer 1]")
"100 to 1000 nM"

====

Entries and their pIC50 values follow.
Target: LRRK2 WT (Homo sapiens)
Construct: purchased Life Technologies PR8604B
Sequence (Q5S007 whole entry): as the sequence (Q5S007 whole entry G2019S) above, with S2019G counted along it
Test: LRRK2 Kinase Activity Assay (LanthaScreen TR-FRET), wild type
Type: biochemical
Details: recombinant wild type LRRK2, 25 μM ATP, 400 nM LRRKtide, 60 min; class symbols
Description: LRRK2 kinase activity was measured using a LanthaScreen™ Kinase Activity Assay from ThermoFisher Scientific. Recombinant wild type or G2019S-LRRK2 protein (Life Technologies, PR8604B or PV4881, respectively), was incubated with a fluorescein-labeled peptide substrate called LRRKtide that is based upon ezrin/radixin/moesin (ERM) (Life Technologies, PV4901) in the presence of ATP and serially diluted compound. […]
pIC50: −log10 of the molar value.
Measured Metric: pIC50

>>> measured_result("N#Cc1ccc2c(c1)CC[C@@H]2Nc1ccc2[nH]nc(-c3cnoc3)c2c1 (single isomer, unassigned) [Example 8, enantiomer 1]")
"> 7.00"
>>> measured_result("N#Cc1ccc2c(c1)C(F)(F)C[C@@H]2Nc1ccc2[nH]nc(-c3cnco3)c2c1 (single isomer, unassigned) [Example 138, enantiomer 2]")
"6.00 to 7.00"
>>> measured_result("Cc1nc2c(c(C)c1C#N)CC[C@@H]2Nc1ccc2[nH]nc(-c3cnco3)c2c1 (single isomer, unassigned) [Example 170, enantiomer 2]")
"6.00 to 7.00"
>>> measured_result("N#Cc1cnc2c(c1)OCC[C@@H]2Nc1ccc2[nH]nc(-c3cnco3)c2c1 (single isomer, unassigned) [194, enantiomer 1]")
"> 7.00"
>>> measured_result("N#Cc1ccc2c(c1)CCC[C@@H]2Nc1ccc2[nH]nc(-c3ccn[nH]3)c2c1 (single isomer, unassigned) [Example 157, enantiomer 2]")
"> 7.00"
>>> measured_result("COc1n[nH]c2ccc(O[C@H]3CCc4cc(C#N)c(Cl)nc43)cc12 (single isomer, unassigned) [185, enantiomer 1]")
"> 7.00"
>>> measured_result("N#Cc1ccc2c(c1)CCC[C@@H]2Oc1ccc2[nH]nc(-c3cnco3)c2c1 (single isomer, unassigned) [Example 18, enantiomer 2]")
"> 7.00"

====

Target: LRRK2 WT (Homo sapiens)
Construct: purchased Life Technologies PR8604B
Test: LRRK2 Kinase Activity Assay (LanthaScreen TR-FRET), wild type
Format: biochemical
Details: recombinant wild type LRRK2, 25 μM ATP, 400 nM LRRKtide, 60 min; class symbols
pIC50: −log10 of the molar value.
Measured Metric: pIC50

>>> measured_result("Cc1c(C#N)c(Cl)nc2c1CC[C@@H]2Oc1ccc2[nH]nc(-c3cnco3)c2c1 (single isomer, unassigned) [Example 166, enantiomer 1]")
"> 7.00"
>>> measured_result("[2H][C@]1(Nc2ccc3[nH]nc(-c4cnco4)c3c2)CCCc2cc(C#N)cnc21 (single isomer, unassigned) [Example 162, enantiomer 1]")
"6.00 to 7.00"
>>> measured_result("Cn1cc2cc(-c3n[nH]c4ccc(N[C@H]5CCCc6cc(C#N)ccc65)cc34)ccc2n1 (single isomer, unassigned)")
"> 7.00"
>>> measured_result("Cn1cc2ccc(-c3n[nH]c4ccc(N[C@H]5CCCc6cc(C#N)ccc65)cc34)cc2n1 (single isomer, unassigned)")
"5.00 to 6.00"
